compounds and their reported cell viability
# Test system: MOLM14;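 also: after 48 h exposure read by CellTiter-Glo luminescence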
# TEST_DETAILS: cell viability relative to vehicle control; higher = less cytotoxic
# CONDITION_NOTES: 10 µM; SRSF2 genotype: SRSF2 wt/wt
Structures can show the parent of a compound that is named as a salt.

COMPOUND | cell viability, %
COC(=O)C1=CO[C@@H](O)[C@@H]2C(CO)=CC[C@H]12 [Genipin] | 90.4
Cc1nnsc1C(=O)Nc1ccc(-n2nc(C(F)(F)F)cc2C(F)(F)F)cc1 | 99.1
O=C1CCC[C@@H]2[C@H]3CCC[N+]4([O-])CCC[C@@H](CN12)[C@@H]34 (stereo partly drawn) [Oxymatrine (Matrine N-oxide)] | 98.2
Cc1cc(N2CCOCC2)cc2[nH]c(-c3c(NCC(O)c4cccc(Cl)c4)cc[nH]c3=O)nc12 (stereo not drawn) | 9.63
CNC(=O)c1cc(Oc2ccc(NC(=O)Nc3ccc(Cl)c(C(F)(F)F)c3)cc2)ccn1 [Sorafenib Tosylate] | 11.5
CCCCCCCCCCCC(=O)O [Lauric Acid] | 92.1
COc1ccc([C@@H]2CC(=O)c3c(O)cc(O)cc3O2)cc1O [Hesperetin] | 108
CC(C)(C)c1[nH]cnc1/C=c1\[nH]c(=O)/c(=C/c2ccccc2)[nH]c1=O [NPI-2358 (Plinabulin)] | 1.52
Oc1ccc2c(c1)OCO2 [Sesamol] | 88
COCCc1ccc(OCC(O)CNC(C)C)cc1 (stereo not drawn) [Metoprolol tartrate] | 105
C[C@@H](NCCCc1cccc(C(F)(F)F)c1)c1cccc2ccccc12 [AMG-073 HCl (Cinacalcet hydrochloride)] | 24.2
C[C@H](CS)C(=O)N1CCC[C@H]1C(=O)O [Captopril (Capoten)] | 102
C[C@H](NC(=O)/C(C#N)=C/c1cccc(Br)n1)c1ccccc1 | 0.75
O=C(Nc1ccncc1)c1cc([N+](=O)[O-])ccc1Cl | 106
Cc1cccc(C#Cc2ccccc2)n1 | 110
COc1ccc(NS(=O)(=O)c2sc3ccc(Cl)cc3c2C)cc1N1CCNCC1 | 106
COc1ccc([C@@H]2CC(=O)c3c(O)cc(O[C@@H]4O[C@H](CO[C@@H]5O[C@@H](C)[C@H](O)[C@@H](O)[C@H]5O)[C@@H](O)[C@H](O)[C@H]4O)cc3O2)cc1O [Hesperidin] | 113
CN1CC[C@H](c2c(O)cc(O)c3c(=O)cc(-c4ccccc4Cl)oc23)[C@H](O)C1 [Flavopiridol (Alvocidib)] | 0.32
COc1ccc2[nH]c([S@@+]([O-])Cc3ncc(C)c(OC)c3C)nc2c1 [NEXIUM (esomeprazole magnesium)] | 98.6
CC=C1C(=O)C[C@H]2[C@@H]3CCC4=CC(=O)CC[C@]4(C)[C@H]3CC[C@]12C [Guggulsterone E&Z] | 89.3
O=C(NCCCNc1nc(Nc2cccc(NC(=O)N3CCCC3)c2)ncc1I)c1cccs1 | 6.15
O=c1[nH]c(=O)n(C2CCCO2)cc1F (stereo not drawn) | 104
CC(C)=CC(=O)O[C@H]1Cc2cc3ccc(=O)oc3cc2OC1(C)C [Decursin] | 92.5
COc1ccc(CCNCC(O)COc2cccc(C)c2)cc1OC (stereo not drawn) [Bevantolol hydrochloride] | 91.2
O=C1O[C@H]([C@@H](O)CO)C(O)=C1O [Vitamin C (Ascorbic acid)] | 95.1
C=CC(=O)Nc1cccc(Oc2nc(Nc3ccc(N4CCN(C)CC4)cc3)nc3ccsc23)c1 | 0.47
O=C1CCc2c(ccc3ccccc23)O1 [Splitomicin] | 99.5
CN1CCN(c2ccc(Nc3ncc4cc(C#N)c(=O)n(C5CCCC5)c4n3)cc2)CC1 | 16.4
CCOC(=O)C1=C(C)NC(C)=C(C(=O)OCC)C1c1ccccc1/C=C/C(=O)OC(C)(C)C [Lacidipine (Lacipil, Motens)] | 39.8
c1cc2c(c3c1C[C@H]1c4cc5c(cc4CCN1C3)OCO5)OCO2 [Stylopine hydrochloride] | 94
C[C@@H](CC[C@@]1(O)O[C@H]2C[C@H]3[C@@H]4CC[C@@H]5C[C@@H](O[C@@H]6O[C@H](CO)[C@H](O)[C@H](O)[C@H]6O[C@@H]6O[C@H](CO)[C@@H](O)[C@H](O)[C@H]6O)CC[C@]5(C)[C@H]4CC[C@]3(C)[C@H]2[C@@H]1C)CO[C@@H]1O[C@H](CO)[C@@H](O)[C@H](O)[C@H]1O [Timosaponin BII] | 93.5
CC(=O)Oc1ccccc1C(=O)Nc1ncc([N+](=O)[O-])s1 [Nitazoxanide (Alinia, Annita)] | 89.7
COc1ccccc1C(=O)Nc1cc2c(cc1N1CCCC1)n(C)c(=O)n2C | 83.4

These data points were gathered from the supplement of paper PMC10981050.
